Origin of the recorded values: PubChem BioAssay AID1159580

- ASSAY: chemical genetic growth profiling, strain panel (AID 1159580);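 further: tested at 20 µM; growth read once vehicle control cultures reached saturation at 30 °C; 1 = growth at the plate median or of vehicle wells; lower values mean less growth of the strain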
- DETAILS: S. cerevisiae deletion strains, growth OD, locus YMR125W, strain sto1, stronger effect = lower value
Among all 5,500 compounds or so, about 2,000 (36%) were called active. About 18% were inconclusive and are not listed. Some of the results follow.
# normalized growth per entry
I only need the number, thanks.

Example results:
Entry O=C(O)c1ccccc1-c1c2cc(Br)c(=O)cc-2oc2[c]([Hg])c(O)c(Br)cc12 , normalized growth reported as 1.02

Entry Cn1c(=O)c2[nH]cnc2n(C)c1=O , normalized growth reported as 1.01

Entry O=C1NC(=O)C(=O)C(=O)N1 , normalized growth reported as 0.982

Entry CC(C)C(C)/C=C/C(C)C1CCC2C3=CC=C4CC(O)CCC4(C)C3CCC21C (centres undefined) , normalized growth reported as 1.01

Entry C=C1CCC2C(CC2(C)C)C(=O)CCC1O (centres undefined) , normalized growth reported as 0.973

Entry COC(=O)C(O)c1ccccc1 (centres undefined) , normalized growth reported as 0.998

Entry O=C(O)CN1C(=O)c2cccc3cccc(c23)C1=O , normalized growth reported as 0.979

Entry Cc1cccc(Nc2ccccc2C(=O)O)c1C , normalized growth reported as 0.955

Others:
Entry COc1ccc2c(c1OC)C(=O)OC2[C@H]1c2c(cc3c(c2OC)OCO3)CCN1C (some centres undefined) , normalized growth reported as 1.01

---

- ASSAY: chemical genetic growth profiling, strain panel (AID 1159580);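 further: tested at 20 µM; growth read once vehicle control cultures reached saturation at 30 °C; 1 = growth at the plate median or of vehicle wells; lower values mean less growth of the strain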
- DETAILS: S. cerevisiae deletion strains, growth OD, locus YLR342W, strain FKS1 (second series), stronger effect = lower value
Hit rate of the full screen: of about 5,500 compounds, about 2,000 (36%) were called active. Inconclusive results (about 18%) are left out. Some of the results follow.
MEASURED PARAMETER: normalized growth
I only need the number, thanks.

Entry CO/N=C(\C(=O)N[C@@H]1C(=O)N2C(C(=O)O)=C(CSc3nc(=O)c(O)nn3C)CS[C@H]12)c1csc(N)n1 , normalized growth reported as 0.985

Others:
Entry CC(=O)OCC[C@H](C)CCC=C(C)C , normalized growth reported as 1.01

Entry Oc1ccc(Cl)cc1 , normalized growth reported as 0.995

Entry C=CCSCC1Nc2cc(Cl)c(S(N)(=O)=O)cc2S(=O)(=O)N1 (centres undefined) , normalized growth reported as 0.996

---

- ASSAY: chemical genetic growth profiling, strain panel (AID 1159580);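 further: tested at 20 µM; growth read once vehicle control cultures reached saturation at 30 °C; 1 = growth at the plate median or of vehicle wells; lower values mean less growth of the strain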
- DETAILS: S. cerevisiae deletion strains, growth OD, locus YHR030C, strain SLT2
Hit rate of the full screen: of about 5,500 compounds, about 2,000 (36%) were called active. About 18% were inconclusive and are not listed. Rule as the data show it: active = normalized growth mostly below about 0.91 (no sharp cut-off); inconclusive = no clear call, values can overlap the other calls; inactive = mostly above about 0.92. The list shows a part of the results.
Log the outcome using a class from yes = active, no = inactive

Some solved cases for reference:
Exercise: Can you look up the reported call for Cc1onc(-c2c(F)cccc2Cl)c1C(=O)Oc1ccccc1 for me?
Key: no

Exercise: Can you look up the reported call for Cc1cccc2c1N(C(=S)Nc1ccccc1Cl)CCC2 for me?
Key: yes

From here, focus on the item given below.
Exercise: Can you look up the reported call for COc1ccc(C(C)=O)cc1CSC(=NS(=O)(=O)c1ccccc1)Nc1cccc(F)c1 for me?
Key: no

---

- ASSAY: chemical genetic growth profiling, strain panel (AID 1159580);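 further: tested at 20 µM; growth read once vehicle control cultures reached saturation at 30 °C; 1 = growth at the plate median or of vehicle wells; lower values mean less growth of the strain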
- DETAILS: S. cerevisiae deletion strains, growth OD, locus YOR061W, strain CKA2, stronger effect = lower value
Hit rate of the full screen: of about 5,500 compounds, about 2,000 (36%) were called active. About 18% were inconclusive and are not listed. The list shows a part of the results.
MEASURED PARAMETER: normalized growth
I only need the number, thanks.

Example results:
Entry FC(F)(F)c1cccc(-n2c(CSCc3cccc4ccccc34)n[nH]c2=S)c1 , normalized growth reported as 0.977

Entry C=C1C(=O)O[C@@H]2C3O[C@]3(C)CC/C=C(\C)CC[C@@H]12 (stereo partly specified) , normalized growth reported as 0.918

Entry Cc1c(-c2ccnn2C(=O)c2ccco2)cnn1-c1ccccc1 , normalized growth reported as 0.909

Entry C[N+]1(C)C2CC(OC(=O)[C@@H](CO)c3ccccc3)CC1C1OC12 (stereo partly specified) , normalized growth reported as 1.01

Others:
Entry CCCCCCOc1ccccc1C(N)=O , normalized growth reported as 0.794

Entry C=C1CCC2C(CC2(C)C)C(=C)CC/C1=N\O (stereo unspecified) , normalized growth reported as 0.997

Entry COc1cc(-c2coc3cc(OCc4ccccc4)c(OC)c(O)c3c2=O)cc(O)c1OC , normalized growth reported as 0.848

Entry CCCCOC(=O)c1ccccc1C(=O)OCCCC , normalized growth reported as 0.984

Entry COC(=O)C(C)c1ccc(C(=O)c2cccs2)cc1 (stereo unspecified) , normalized growth reported as 0.985
